Reference source: PubChem BioAssay (NCI)

# Test system: CAKI-1 renal
# method: NCI tumour cell line growth inhibition, 48 h
readout-name: TGI

compound | reported-measurement
CC(=O)NC(=O)NC1=NCCC(=O)N1CCc1c[nH]c2ccccc12 | > 100 µM
C=C(C)[C@@H]1CC[C@]2(CO)CC[C@]3(C)[C@H](CC[C@@H]4[C@@](C)(CCCN)[C@H](C(=C)C)CC[C@]43C)[C@@H]12 | 3.21 µM
COC(=O)[C@@H]1C=C[C@H](NC(C)=O)C1 | > 100 µM
O=C(Nc1ccc(Br)cc1)Nc1nn(C(=O)Nc2ccc(Br)cc2)c2ccccc12 | > 84 µM
CN(C)CCCc1c2ccccc2nc2ccc(Cl)cc12 | 31.4 µM

Provide TGI for all items below, preserving their order.
1. C=CC(OC(C)=O)c1ccc(OC(C)=O)cc1 (configuration not stated)
2. CN1C(=O)C2C=CC1C1CCC2N(C)C1=O (configuration not stated)
3. COc1cc2c(cc1OC)C(=O)/C(=C/c1ccc(O)cc1)CC2
4. Cn1c(=O)n(CC2CS2)c2ccccc21 (configuration not stated)
5. CC(C)(C)n1cc(-c2ccnc(NCCCNS(=O)(=O)c3ccc(Br)cc3)c2)c(-c2cccc(O)c2)n1

Reply:
1: 10 µM; 2: > 100 µM; 3: > 10 µM; 4: > 100 µM; 5: 5.06 µM

* * *

# System: HCC-2998 colon
# method: NCI tumour cell line growth inhibition, 48 h
Exercise: state measured TGI for each of the molecules provided.
One number for each entry, in µM.

Please review the entries below; each comes with its answer.
molecule | reported-measurement
COc1ccc([C@@H](O)c2cc(-c3ncnc4cc(N5CCOCC5)ccc34)c(F)cc2Cl)nn1 | 18.7
Oc1c(Cl)cc(Cl)cc1Sc1cc(Cl)cc(Cl)c1O | 14.7
COc1ccccc1NC(=S)N/N=C/c1ccccn1 | 32.9
COc1ccc2c(c1)C(=O)C1CCC(=O)N1C2c1ccc2c(c1)OCO2 (stereo not given) | 28
CCOC(=O)c1c2c(n(Cc3ccccc3)c1C)-c1nc(Cc3ccccc3)[nH]c1C(=O)C2=O | 4.09
CC(C)(CN1CCCCC1)C(/C=C/c1ccccc1)=N\NC(=O)N/N=C(/C=C/c1ccccc1)C(C)(C)CN1CCCCC1 | 1.86
Cc1c(Cl)cccc1NC(=O)/C(Cl)=C(\Cl)C(=O)O | 35.5

Now consider a different molecule.
Query: Provide one value: measured TGI of CC1CN=C(c2ccc(CN3CCC(C4CCN(Cc5ccc(C6=NCC(C)N6)cc5)CC4)CC3)cc2)N1 (stereo not given)
Reply: 30.9

* * *

# Test system: A549 NSCLC
# method: NCI tumour cell line growth inhibition, 48 h
readout-name: TGI

Some molecules with known TGI results, for comparison:
molecule | reported-measurement
COC(=O)[C@](C)(Cc1ccccc1)NC(=O)[C@@H](C)N1[C@@H](c2ccccc2)COC1(C)C | > 100 µM
Cc1cccc(N=C2NC(=O)C(CC(=O)Nc3ccc(C)cc3C)S2)c1 (stereo not drawn) | > 100 µM
CC[C@@]12C=CCN3CC[C@]4(c5cc(NC(=O)COc6cc(OCC(=O)Nc7cc8c(cc7OC)N(C)[C@H]7[C@@](O)(C(=O)OC)[C@H](OC(C)=O)[C@]9(CC)C=CCN%10CC[C@]87[C@@H]%109)cc7oc(-c8ccccc8)cc(=O)c67)c(OC)cc5N(C)[C@@H]4[C@](O)(C(=O)OC)[C@H]1OC(C)=O)[C@H]32 | > 100 µM

Batch lookup, TGI per entry.
1. O=C1CCN2CCC(=O)c3c2c(cc2ccccc32)N1
2. CC1=CC[C@](C)(O)[C@@]2(C)CC[C@H]3C(=C(C)C)C(=O)C[C@]3(C)C[C@H]12
3. CC1CN=C(c2ccc(-c3nc(-c4ccc(C5=NCC(C)N5)cc4)nc(N(C)C)n3)cc2)N1 (stereo not drawn)
4. Cn1c2ccc(C3=NCCN3)cc2c2cc(C3=NCCN3)ccc21

Reply:
["> 100 µM", "> 50 µM", "12.8 µM", "> 100 µM"]

Query: Give reported TGI value for COC(=O)[C@]1(C)C(OC)=CC(=O)C2C1[C@H]1CCC[C@@H]21 (stereo partly drawn)
Reply: > 100 µM
